Read-out: Monocyte Chemoattractant Protein-1 (MCP1), CCL2 (gene 6347)
ASSAY_PROCEDURE: BSK_3C_MCP1: BioMAP Diversity Plus: 3C Assay for Monocyte Chemoattractant Protein-1 (MCP1) Biomarker Activity (AID 2283017)
CONDITION_LABEL: primary human endothelial cells (HUVEC); actives raise or lower the signal
The source made the active and inactive calls. Rule for the calls: active = hit-call score of the fitted dose curve at least 0.9, where 1 is the maximum; inactive = score below 0.9.
Possible outcomes: 1 (yes) for active, 0 (no) for inactive

>  <MOLECULE>
CC(=O)OC[C@H]1O[C@@](COC(C)=O)(O[C@H]2O[C@H](COC(C)=O)[C@@H](OC(C)=O)[C@H](OC(C)=O)[C@H]2OC(C)=O)[C@@H](OC(C)=O)[C@@H]1OC(C)=O

>  <LABEL>
0 (no)

$$$$
>  <MOLECULE>
C=CC(=C)CCC=C(C)C

>  <LABEL>
0 (no)

$$$$
>  <MOLECULE>
C1N2CN3CN1CN(C2)C3

>  <LABEL>
0 (no)

$$$$
>  <MOLECULE>
O=C(O)CC(O)C(=O)O (centres undefined)

>  <LABEL>
0 (no)

$$$$
>  <MOLECULE>
CCCCCCc1ccc(O)cc1O

>  <LABEL>
1 (yes)

$$$$
>  <MOLECULE>
COC(=O)c1c(Cl)c(Cl)c(C(=O)OC)c(Cl)c1Cl

>  <LABEL>
0 (no)

$$$$
>  <MOLECULE>
COCCOc1cc2cc(C(=O)NC3CCN(C(C)C)CC3)n(CC(=O)Nc3ccc(Cl)cn3)c2cn1

>  <LABEL>
0 (no)

$$$$
>  <MOLECULE>
CNCc1ccc(NC(=O)c2c[nH]c3c2C(=O)CCC3)cc1

>  <LABEL>
0 (no)

$$$$
>  <MOLECULE>
NC(=O)NO

>  <LABEL>
0 (no)

$$$$
>  <MOLECULE>
CNS(=O)(=O)c1cc(C(=O)N2CCC(CCN3C4CCC3CC(n3c(C)nc5ccccc53)C4)(c3cccc(F)c3)CC2)c(Cl)cc1F (centres undefined)

>  <LABEL>
1 (yes)

$$$$
>  <MOLECULE>
CCOc1cccc(-n2cc(C(=O)N3CCN(c4cc(C(=O)O)c5ccccc5c4)CC3)nc2-c2ccc(C)cc2)c1

>  <LABEL>
1 (yes)

$$$$
>  <MOLECULE>
CC(C)c1cccc(C(C)C)c1N1C(=O)c2ccc(O)cc2C1=O

>  <LABEL>
0 (no)

$$$$
>  <MOLECULE>
C1=CCCC=CCCC=CCC1

>  <LABEL>
0 (no)

$$$$
>  <MOLECULE>
On1ccccc1=S

>  <LABEL>
1 (yes)

$$$$
>  <MOLECULE>
Cn1cnc([N+](=O)[O-])c1Sc1ncnc2nc[nH]c12

>  <LABEL>
0 (no)

$$$$
>  <MOLECULE>
O=C(OC[C@H]1O[C@@H](OC(=O)c2cc(O)c(O)c(OC(=O)c3cc(O)c(O)c(O)c3)c2)[C@H](OC(=O)c2cc(O)c(O)c(OC(=O)c3cc(O)c(O)c(O)c3)c2)[C@@H](OC(=O)c2cc(O)c(O)c(OC(=O)c3cc(O)c(O)c(O)c3)c2)[C@@H]1OC(=O)c1cc(O)c(O)c(OC(=O)c2cc(O)c(O)c(O)c2)c1)c1cc(O)c(O)c(OC(=O)c2cc(O)c(O)c(O)c2)c1

>  <LABEL>
1 (yes)

$$$$
>  <MOLECULE>
COC(=O)CC(=O)OC

>  <LABEL>
0 (no)

$$$$
>  <MOLECULE>
CCc1cc(SCc2sc(-c3ccc(C(F)(F)F)cc3)nc2CN2CCN(c3ccc(OC)cc3)CC2)ccc1OCC(=O)O

>  <LABEL>
1 (yes)

$$$$
>  <MOLECULE>
COc1cccc(-c2ccc(/C=C\CN3CCCCCC3)cc2Cl)c1

>  <LABEL>
1 (yes)

$$$$
>  <MOLECULE>
CCCCC(CC)COC(=O)c1ccc(C(=O)OCC(CC)CCCC)cc1 (centres undefined)

>  <LABEL>
0 (no)

$$$$
>  <MOLECULE>
CCOC(=O)COc1ccc2c(c1)CC(NCC(O)c1cccc(Cl)c1)CC2 (centres undefined)

>  <LABEL>
1 (yes)

$$$$
>  <MOLECULE>
O=C1CCC(N2C(=O)c3ccccc3C2=O)C(=O)N1 (centres undefined)

>  <LABEL>
0 (no)

$$$$
>  <MOLECULE>
CCOC(=O)c1ccc(C2CCC(NC[C@H](O)COc3ccc(O)c(NS(C)(=O)=O)c3)CC2)cc1 (some centres undefined)

>  <LABEL>
1 (yes)

$$$$
>  <MOLECULE>
Cn1c(=O)cc(Oc2ccc(F)cc2F)c2cnc(NCC(C)(C)O)nc21

>  <LABEL>
1 (yes)

$$$$
